system: RIVA; assay: growth inhibition by drug alone (1 - RLU/untreated control) (fraction); higher = stronger inhibition; conditions: 10 nM; time (day): 6; 177Lu-lilotomab satetraxetan 0 ug/ml
Where a name gives a salt, the structure may show the parent alone.
In this section, each of the compounds is paired with its reported growth inhibition by drug alone.

COMPOUND	growth inhibition by drug alone
CCc1c2c(nc3ccc(OC(=O)N4CCC(N5CCCCC5)CC4)cc13)-c1cc3c(c(=O)n1C2)COC(=O)[C@]3(O)CC [Irinotecan HCl Trihydrate (Campto)]	-0.511
Cc1cnc(Nc2ccc(OCCN3CCCC3)cc2)nc1Nc1cccc(S(=O)(=O)NC(C)(C)C)c1	-0.459
CCOc1ccc(Nc2nc(-c3c(C)nc4ccccn34)cs2)cc1	-0.237
Nc1nc(Nc2ccc(S(N)(=O)=O)cc2)nn1C(=O)c1c(F)cccc1F	-0.232
Cc1nc(-c2ccc(OCC(C)C)c(C#N)c2)sc1C(=O)O	-0.473
CCOc1cc2ncc(C#N)c(Nc3ccc(F)c(Cl)c3)c2cc1NC(=O)/C=C/CN(C)C [Pelitinib (EKB-569)]	-0.439
COc1ccc(S(=O)(=O)Nc2cccnc2Nc2ccc(O)cc2)cc1	-0.37
C=CCc1cccc(/C=N/NC(=O)CN2CCN(Cc3ccccc3)CC2)c1O	-0.379
C[C@H](NC(=O)Cc1cc(F)cc(F)c1)C(=O)N[C@H](C(=O)OC(C)(C)C)c1ccccc1	-0.264
COc1cccc2c1C(=O)c1c(O)c3c(c(O)c1C2=O)C[C@@](O)(C(C)=O)C[C@@H]3O[C@H]1C[C@H](N)[C@H](O)[C@H](C)O1 [Daunorubicin HCl (Daunomycin HCl)]	0.0495
CC(C)CC(=O)Nc1n[nH]c2c1CN(C(=O)C1CCN(C)CC1)C2(C)C	-0.141
O=c1cc(-c2cccc3c2Sc2ccccc2S3)oc(N2CCOCC2)c1	-0.318
CN(CCOc1ccc(CC2SC(=O)NC2=O)cc1)c1ccccn1 (stereo not given)	-0.42
CN(C)Cc1ccc(-c2nc3cccc4c3n2CCNC4=O)cc1	-0.223
CS(=O)(=O)c1ccc(C(=O)Nc2ccc(Cl)c(-c3ccccn3)c2)c(Cl)c1	-0.0572

###

test system: RIVA; test: growth inhibition by drug plus 177Lu-lilotomab satetraxetan (1 - RLU/untreated control) (fraction); higher = stronger inhibition; settings: 10 nM; time (day): 6; 177Lu-lilotomab satetraxetan 0.5 ug/ml
Structures can show the parent of a compound that is named as a salt.
ATTRIBUTE_MEASURED: growth inhibition by drug plus 177Lu-lilotomab satetraxetan

COMPOUND	READOUT_NUMBER
NC(=O)Nc1cc(-c2cccc(F)c2)sc1C(=O)N[C@H]1CCCNC1	0.43
COc1cc2/c(=N/c3ccc(Br)cc3F)nc[nH]c2cc1OCC1CCN(C)CC1 [Vandetanib (Zactima)]	0.535
COc1cccc2c1C(=O)c1c(O)c3c(c(O)c1C2=O)C[C@@](O)(C(=O)CO)C[C@@H]3O[C@H]1C[C@H](N)[C@@H](O)[C@H](C)O1 [Epirubicin Hydrochloride]	0.863
Cc1ccc(Nc2nccc(N(C)c3ccc4c(C)n(C)nc4c3)n2)cc1S(N)(=O)=O	0.564
CC[C@@]1(O)C(=O)OCc2c1cc1n(c2=O)Cc2cc3c(CN(C)C)c(O)ccc3nc2-1 [Topotecan HCl]	0.944
CCC[C@H](NC(=O)/C(C#N)=C/c1cccc(Br)n1)c1ccccc1	0.61
Cc1ccc(C(=O)Nc2ccc(CN3CCN(C)CC3)c(C(F)(F)F)c2)cc1C#Cc1cnc2cccnn12	0.509
NC(=O)Nc1sc(-c2ccc(F)cc2)cc1C(N)=O	0.586
COc1cc2ncnc(Nc3cccc(Br)c3)c2cc1OC	0.516
CN1CCC(CNc2ccc3ncc(-c4cccc(OC(F)(F)F)c4)n3n2)CC1 [SGI-1776 free base]	0.561
CNNCc1ccc(C(=O)NC(C)C)cc1 [Procarbazine hydrochloride (Matulane)]	0.607
C[C@@H](N)[C@H]1CC[C@H](C(=O)Nc2ccncc2)CC1	0.619
Nc1nccc(-c2ccc3noc(-c4ccc(Cl)cc4)c3c2)n1	0.604
